// z-score lookup, one value per entry
experiment_notes: MELAS cybrid and Rieske KO viability enhancers – cell-based, MELAS cybrids, Rieske KO mouse fibroblasts, CellTiter-Glo, primary screen (AID 1508586);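 also: z relative to plate mean and SD of compound and empty wells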
condition_label: MELAS cybrid survival, low glucose, CellTiter-Glo 48 h; stronger effect = higher value
// return a plain number; no unit text

A selection of reference data follows.
NC(=O)Cc1c[nH]c2ccccc12 = 0.728
CCn1c(-c2nonc2N)nc2c(C#CC(C)(C)O)ncc(OCC3CCCNC3)c21 (configuration not stated) = -0.704
O=C(O)CCc1c(C(=O)O)[nH]c2cc(Cl)cc(Cl)c12 = 0.688
CC[N+](CC)(CC)CCC(O)(c1ccccc1)C1CCCCC1 (configuration not stated) = -0.675
Cc1cc(-c2cccc3cccnc23)nc(N)n1 = -0.012
Cc1ccc(N2CCN(C3CCc4c(c(C(=O)N5CCSCC5)nn4C)C3)CC2)c(C)c1 (configuration not stated) = -0.0351

# input for lookup
I have this molecule here, CN(CCc1ccccn1)C(=O)c1ccc2sc(N)nc2c1 , and I need its recorded z-score.
0.048

----------
# viability annotations
experiment_notes: drug combination growth inhibition, ovarian cancer – cell-based, oncology-focused library, rucaparib conditional, profiling panel (AID 1508598)
condition_label: patient-derived ovarian cancer cells, CellTiter-Glo viability, 144 h; at 1.25 µM; OCI-P5x cells; with rucaparib 20 µM; stronger effect = lower value; 100% = cells with rucaparib alone
// units = %; emit number, no label

Observe how each entry below is paired with its result.
C[C@@H]1C[C@H]2[C@@H]3CCC4=CC(=O)C=C[C@]4(C)[C@]3(F)[C@H](O)C[C@]2(C)[C@]1(O)C(=O)CO = 95.5
COc1cc([C@H]2c3cc4c(cc3[C@@H](O[C@@H]3O[C@@H]5CO[C@@H](C)O[C@H]5[C@H](O)[C@@H]3O)[C@H]3COC(=O)[C@H]23)OCO4)cc(OC)c1O = 79.8
CO[C@H]1C[C@H]2CC[C@@H](C)[C@@](O)(O2)C(=O)C(=O)N2CCCC[C@H]2C(=O)O[C@H]([C@H](C)C[C@@H]2CC[C@H](OC(=O)C(C)(CO)CO)[C@H](OC)C2)CC(=O)[C@H](C)/C=C(\C)[C@@H](O)[C@@H](OC)C(=O)[C@H](C)C[C@H](C)/C=C/C=C/C=C/1C = 77
CC(=O)O[C@H]1C(=O)[C@@]2(C)C([C@H](OC(=O)c3ccccc3)[C@]3(O)C[C@H](OC(=O)[C@H](O)[C@@H](NC(=O)c4ccccc4)c4ccccc4)C(C)=C1C3(C)C)[C@]1(OC(C)=O)CO[C@@H]1C[C@H]2O (stereo not given in full) = 56.9

Query compound follows.
Fill in the blank: the reported viability of COc1cccc2c1C(=O)c1c(O)c3c(c(O)c1C2=O)C[C@@](O)(C(=O)CO)C[C@H]3O[C@H]1C[C@H](N)[C@@H](O)[C@H](C)O1 is ____.
11.7

----------
experiment_notes: viability loss with induced miR-34 in A549 – imaging, A549 dox-inducible miR-34, nuclei and caspase counts, primary screen (AID 1347080)
condition_label: A549 miR-34 inducible, Hoechst nuclei count, 48 h; measured here: relative caspase fold change +Dox/-Dox
Quick reference: fold change of the listed items.
Format: numeric value only, no unit, no commentary.

Before answering, review these 5 worked examples.
CN(CCn1cccn1)Cc1ccc(-c2nc(-c3cccnc3)cc(=O)[nH]2)cc1 = 1.22
O=C(C=Cc1ccc(O)c(O)c1)OC1C[C@@](O)(C(=O)O)CC(O)C1O (stereo partly drawn) = 0.802
C1=CCOCc2cc(ccc2OCCN2CCCC2)Nc2nccc(n2)-c2cccc(c2)COC1 = 0.685
COc1ccc2c(c1)CCC1C2CC[C@@]2(C)C1CC[C@@H]2NCCCCCCN1C(=O)CCC1=O (stereo partly drawn) = 0.876
O=C(Nc1ccccc1)N1CCN(c2nc(-c3ccccc3)ns2)CC1 = 0.483

Which fold change reading was recorded for the molecule C[C@]12C=CC(=O)N[C@@H]1CC[C@@H]1[C@H]2CC[C@]2(C)C(C(=O)Nc3cc(C(F)(F)F)ccc3C(F)(F)F)CC[C@@H]12 (stereo partly drawn) ?
0.927

Cool, now CO[C@@]1(NC(=O)C2SC(=C(C(N)=O)C(=O)O)S2)C(=O)N2C(C(=O)O)=C(CSc3nnnn3C)CS[C@@H]21 (stereo partly drawn)
1.71

Now consider COC1C=CO[C@@]2(C)Oc3c(C)c(O)c4c(O)c(c(C=NN5CCN(C)CC5)c(O)c4c3C2=O)NC(=O)C(C)=CC=CC(C)C(O)C(C)C(O)C(C)C(OC(C)=O)C1C (stereo partly drawn) .
0.46
